Target: human glucagon receptor (human, UniProt P47871 26-477)
Sequence (P47871 26-477): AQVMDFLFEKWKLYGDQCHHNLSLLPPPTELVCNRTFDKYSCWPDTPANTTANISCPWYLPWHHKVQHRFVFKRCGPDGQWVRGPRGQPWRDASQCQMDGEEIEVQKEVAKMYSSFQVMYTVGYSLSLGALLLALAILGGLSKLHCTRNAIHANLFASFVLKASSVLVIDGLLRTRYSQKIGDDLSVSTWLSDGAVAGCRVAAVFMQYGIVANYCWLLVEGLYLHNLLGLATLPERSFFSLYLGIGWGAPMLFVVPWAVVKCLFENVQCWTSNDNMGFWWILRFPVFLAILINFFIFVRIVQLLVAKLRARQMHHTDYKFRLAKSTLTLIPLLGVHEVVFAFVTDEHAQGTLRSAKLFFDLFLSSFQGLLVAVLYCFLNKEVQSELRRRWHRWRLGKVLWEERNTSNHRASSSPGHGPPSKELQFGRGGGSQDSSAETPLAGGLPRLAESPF
Assay: cell-based or functional assay
Non-standard residues stand in square brackets, D forms with d. No end group written: not given here. Aib = CC(C)(N)C(=O)O
Would you please tag the item Y when its In vitro activity (relative activity to SEQ ID NO: 1, %), cAMP assay, from EC50 is 4% or above, and N when it is below?

Y[Aib]QGTFTSDYSKYLDSCDADDFVVWLINT [glucagon derivative of SEQ ID NO: 10]: N

For the next question, use this binder.
hey, is In vitro activity (relative activity to SEQ ID NO: 1, %), cAMP assay, from EC50 for this one >= 4%? Y[Aib]QGTFTSDYSKYLDSCDAQDFVVWLINT [glucagon derivative of SEQ ID NO: 9]
N
